# test.method.notes: Cell viability assay (CCK-8)
# Assay type: cell-based
# assay.context: human, Caco-2 cells, 48 h incubation, read-out: IC50, cytotoxicity against Caco-2 cells
test.readout: IC50 at 48 h (mM)
Just the number please, in mM, no unit attached.

| molecule | test.readout | readout.value |
| --- | --- | --- |
| O=Cc1ccc(CO)o1 [HMF, 5-(Hydroxymethyl)-2-furfural] | IC50 at 48 h | 19.2 |

# context switch: different molecule, same IC50 at 48 h
The molecule listed as COc1cc(CCC(=O)/C=C/c2ccc(CO)o2)ccc1O shows IC50 at 48 h equal to 25.4
